Attribution: patent US20240116985A1

Target: T1, B-cat-Halo (beta-catenin HaloTag fusion construct expressed in HEK293 cells) (UniProt P35222 1-781)
T1 sequence (looked up): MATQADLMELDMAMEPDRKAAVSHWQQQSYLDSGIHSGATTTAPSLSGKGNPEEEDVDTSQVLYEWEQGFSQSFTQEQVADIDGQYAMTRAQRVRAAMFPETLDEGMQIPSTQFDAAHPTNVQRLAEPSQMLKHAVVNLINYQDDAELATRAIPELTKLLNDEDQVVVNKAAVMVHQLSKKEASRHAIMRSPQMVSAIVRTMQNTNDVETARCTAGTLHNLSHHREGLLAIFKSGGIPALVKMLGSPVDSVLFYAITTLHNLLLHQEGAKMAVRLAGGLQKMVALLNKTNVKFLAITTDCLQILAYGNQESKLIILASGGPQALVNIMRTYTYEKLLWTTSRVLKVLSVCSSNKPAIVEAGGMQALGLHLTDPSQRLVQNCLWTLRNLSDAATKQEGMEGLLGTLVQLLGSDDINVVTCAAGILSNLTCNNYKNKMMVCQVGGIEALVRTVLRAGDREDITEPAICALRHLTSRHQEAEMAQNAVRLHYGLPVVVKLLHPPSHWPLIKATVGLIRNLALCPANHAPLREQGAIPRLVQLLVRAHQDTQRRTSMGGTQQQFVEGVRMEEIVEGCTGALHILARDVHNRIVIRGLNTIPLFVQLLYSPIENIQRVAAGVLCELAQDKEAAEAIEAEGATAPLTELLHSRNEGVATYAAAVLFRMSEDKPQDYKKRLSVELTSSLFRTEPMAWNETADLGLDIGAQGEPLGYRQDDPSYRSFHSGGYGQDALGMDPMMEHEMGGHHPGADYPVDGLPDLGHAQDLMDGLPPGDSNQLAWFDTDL
Test: cell-based or functional assay
Starred links: 1 amine or outer side, 2 acyl side, 3 side chain; linkers in the order of their positions; H or OH if unused. Positions of bridges follow the written chain, without caps; N, C: chain ends. Non-standard residues stand in square brackets, D forms with d. Primed or numbered codes have the meaning given here. PyrS2″ = (S)-3-amino-1-((pent-4-en-1-yloxy)carbonyl)pyrrolidine-3-carboxylic acid (stapling residue), C=CCCCOC(=O)N1CC[C@@](N[*:1])(C(=O)[*:2])C1; B5(3) = 2,2-bis(4-pentenyl)glycine (stitching residue), C=CCCCC(CCCC=C)(N[*:1])C(=O)[*:2]; Phe(2-OMe) = COc1ccccc1C[C@H](N)C(=O)O; Bta = N[C@@H](Cc1csc2ccccc12)C(=O)O; αAllylPro = C=CC[C@@]1(C(=O)O)CCCN1; tBuAla = CC(C)(C)C[C@H](N)C(=O)O; Cha = N[C@@H](CC1CCCCC1)C(=O)O
Measured NanoBRET Abs IC50 values are reported for all entries that follow.
Just the number please, in µM, no unit attached.

# count of solved cases: 2
Ac-[αAllylPro]D[Cha][B5(3)]DDAAFS[PyrS2″][Phe(2-OMe)][Bta]S-NH2 (staple 1-4, 4-11) [I-1104]; 17.7
Ac-[αAllylPro]D[Cha][B5(3)]DDAAFS[PyrS2″]F[Bta]S-NH2 (staple 1-4, 4-11) [I-1100]; 24.3

For the binder Ac-[αAllylPro]D[tBuAla][B5(3)]DDAAFS[PyrS2″][Phe(2-OMe)][Bta]S-NH2 (staple 1-4, 4-11) [I-1103] , what NanoBRET Abs IC50 is on record?
16.7
